# Measurement Target: T1, Y. pestis F1 protein (Yersinia pestis KIM5, UniProt P26948 22-170)
# T1 construct: also called F1 antigen; Fl
# T1 sequence (P26948 22-170 limits assumed): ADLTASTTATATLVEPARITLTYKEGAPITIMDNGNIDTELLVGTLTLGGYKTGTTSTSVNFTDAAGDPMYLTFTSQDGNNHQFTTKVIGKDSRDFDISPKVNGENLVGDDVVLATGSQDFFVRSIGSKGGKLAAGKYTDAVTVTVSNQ
# Protocol Details: Microcal (calorimetry)
pKd: −log10 of the molar value.
pKd listing for selected binders.
Outcome Measure: pKd

>>> measured("3F61 (VHH) VHH: QVQLQESGGGLVQPGGSLRLSCSASGIIFSDYALTWYRQAPGKQREWVAQITRSQNINYTGSVKGRFTVSRDNAKNTVHLQMNSLKPEDAAVYYCHAYDGRRPPYWGQGTQVTVSS")
6.54
>>> measured("4F6 (VHH) VHH: QVQLQESGGGSVQPGGSLSLSCSASGIIFSDYALTWYRQAPGKQREWVAQITRSQNINYTGSVKGRFTVSRDNAKNTVHLQMNSLKPEDTAVYYCHAYDGRRRTYWGQGTQVTVSS")
7.10
>>> measured("3F1 (VHH) VHH: QVQLQESGGGLVQPGGSLRLSCAASGFTFSTSAMSWIRQPPGKAREVVATITSAGGSISYVNSVKGRFTISRDNAKNTLYLQMNMLKPEDTAVYYCARLVNLAQTGQGTQVTVSS")
6.96
